# SPOT peptide array binding signal intensity listing for each entry below
target: CaBbc1; experiment: SPOT peptide array binding signal intensity (averaged, normalized) (arbitrary units (background-subtracted, floor 0; scale differs between SH3 domains)); higher = stronger binding of the SH3 domain to the peptide
Write no unit; give the number alone.

# example entries with known answers
1) DDEDVPPQLPTRTKS :: 45
2) TYNRTAFQIPGDQSI :: 1
3) GTIARPLFLVVLFFI :: 2

Q: # query: SPOT peptide array binding signal intensity of entry `KTRLRPAFIQQLWSS`
A: 82.5

Q: # query: SPOT peptide array binding signal intensity of entry `KRKRFNLLLPKPYLT`
A: 39.5

Q: # query: SPOT peptide array binding signal intensity of entry `RSRRSSFAYPQQVAI`
A: 258

Q: # query: SPOT peptide array binding signal intensity of entry `PPLPRAPPVPPATFE`
A: 79.2

Q: # query: SPOT peptide array binding signal intensity of entry `KDKKTKPTPPPKPSH`
A: 132

Q: # query: SPOT peptide array binding signal intensity of entry `FSRRQSMDIPSKNRN`
A: 384

Q: # query: SPOT peptide array binding signal intensity of entry `FIRKRAPTPPAPSRS`
A: 641

Ref: the supplement of paper PMC4466140
